Data origin, for the record: patent US10196363B2

Below is a list of entries, each paired with its recorded log10(EC50) value.
- tgt: human RORγ (Homo sapiens)
- Construct: human RORγ, from Ser253 to Lys518; expressed in transfected cells; host or cells: CHO cells (Chinese hamster ovary), transient co-transfection with pG5-Luc
- Sequence (P51449 253-518): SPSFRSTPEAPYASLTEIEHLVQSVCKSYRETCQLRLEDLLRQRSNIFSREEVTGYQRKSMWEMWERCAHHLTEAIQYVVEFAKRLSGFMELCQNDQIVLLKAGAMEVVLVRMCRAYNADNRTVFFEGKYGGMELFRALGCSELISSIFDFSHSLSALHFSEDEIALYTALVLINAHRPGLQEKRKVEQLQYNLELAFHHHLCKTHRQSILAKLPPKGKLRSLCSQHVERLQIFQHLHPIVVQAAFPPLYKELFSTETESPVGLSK
- test: In vitro assay of inhibitory effect against RORγ transcriptional activity (GAL4-hRORγ LBD luciferase reporter gene assay in CHO cells)
- Assay type: cell-based
- conditions used: GAL4-hRORγ LBD / pG5-Luc in CHO cells, 2 days incubation
endpoint label: log10(EC50) (log10 of the value in nM)

[[record]]
molecule = "CCOC(=O)c1ccc(C2(C)NC(=O)N(CCC(=O)O)C=C2C(C)C)cc1Cl (racemic)"
data_value = 4.17

[[record]]
molecule = "CC(C)C1=CN(CCC(=O)O)C(=O)NC1(C)c1ccc(C2CCCC(C)(C)C2)c(Cl)c1 (single isomer, unassigned) [Example 166]"
data_value = 1.15

[[record]]
molecule = "CC(C)(C)CCc1ccc([C@@]2(C)NC(=O)N(CCCC(=O)O)C=C2C2CCC2)cc1Cl"
data_value = 3.10

[[record]]
molecule = "CC(C)COc1ccc([C@]2(C)NC(=O)N(CCC(=O)O)C=C2C(C)C)cc1Cl"
data_value = 2.07

[[record]]
molecule = "CCCCc1ccc(C2(C)NC(=O)N(CCCC(=O)O)C=C2C(C)C)cc1OCc1ccccc1 (racemic)"
data_value = 2.74

[[record]]
molecule = "CC(C)C1=CN([C@H]2C[C@@H](C(=O)O)C2)C(=O)NC1(C)c1ccc(OCC(C)(C)C)c(Cl)c1 (mixture of isomers)"
data_value = 2.56

[[record]]
molecule = "CCC(C)C1=CN(CCCC(=O)O)C(=O)NC1(C)c1ccc(CCC(C)(C)C)c(Cl)c1 (single isomer, unassigned) [Example 33]"
data_value = 2.64

[[record]]
molecule = "CC(C)C1=CN(CCC(=O)O)C(=O)N[C@@]1(C)c1ccc(C2=CCC(C)(C)CC2)c(Cl)c1"
data_value = 1.18

[[record]]
molecule = "CC(C)C1=CN(CCC(C)(C)C(=O)O)C(=O)N[C@@]1(C)c1ccc(CCC(C)(C)C)c(Cl)c1"
data_value = 1.34

[[record]]
molecule = "CC(C)C1=CN(CCc2ccccc2C(=O)O)C(=O)N[C@]1(C)c1ccc(CCC(C)(C)C)c(Cl)c1"
data_value = 2.99

[[record]]
molecule = "CC(C)CC1=CN(CCCC(=O)O)C(=O)N[C@@]1(C)c1ccc(CCC(C)(C)C)c(Cl)c1"
data_value = 1.04

[[record]]
molecule = "CC(C)C1=CN([C@H]2CC(=O)N(CC(=O)O)C2)C(=O)N[C@@]1(C)c1ccc(CCC(C)(C)C)c(Cl)c1"
data_value = 2.24

